# Test system: Staphylococcus aureus
# Measurement description: microbe, parasite or virus in culture
# Assay type: functional
# Conditions used: ATCC 33591
# Description: Antimicrobial activity against hospital acquired methicillin-resistant Staphylococcus aureus ATCC 33591 assessed as inhibition of microbial growth
Readout type: MIC (µM)
Write the number in µM without appending the unit.

Item CCCCCCCCCCCCCC[S+]1CCCC1.[I-] has what recorded MIC?
32

Item CCCCCCCCCCCC[S+]1CCCC1.[I-] has what recorded MIC?
125

Item CCCCCCCCCCCCCCCC[N+]1(C)CCCC1.[Br-] has what recorded MIC?
8

Item CCCCCCCCCCCCC[S+]1CCCC1.[I-] has what recorded MIC?
125

----------
# Tested on: Erythrocyte
# Measurement description: Hemolytic activity against human RBC assessed as concentration required to cause >20% hemolysis
# Assay type: ADME, cell-based
Is HC20 at least 60 µM? Then y. If not, n.

Check the entry C(CCCC[S+]1CCCC1)CCC[S+]1CCCC1.[I-].[I-] : does HC20 equal or exceed 60 µM?
y

Check the entry C[N+]1(CCCCCCCCCC[N+]2(C)CCCC2)CCCC1.[Br-].[Br-] : does HC20 equal or exceed 60 µM?
y

Check the entry CCCCCCCCCCCCCC[S+]1CCCC1.[I-] : does HC20 equal or exceed 60 µM?
n

Check the entry CCCCCCCCCCCCC[N+]1(C)CCCC1.[Br-] : does HC20 equal or exceed 60 µM?
y

Check the entry C(CCCCCC[S+]1CCCC1)CCCCC[S+]1CCCC1.[I-].[I-] : does HC20 equal or exceed 60 µM?
y

Check the entry CCCCCCCCCCCC[N+]1(C)CCCC1.[Br-] : does HC20 equal or exceed 60 µM?
y

Check the entry CCCCCCCCCCCCC[S+]1CCCC1.[I-] : does HC20 equal or exceed 60 µM?
y

Check the entry C[N+]1(CCCCCCCCCCCC[N+]2(C)CCCC2)CCCC1.[Br-].[Br-] : does HC20 equal or exceed 60 µM?
y

Check the entry CCCCCCCCCCCCCCCCCC[S+]1CCCC1.[I-] : does HC20 equal or exceed 60 µM?
n

Check the entry C(CCCCC[S+]1CCCC1)CCCC[S+]1CCCC1.[I-].[I-] : does HC20 equal or exceed 60 µM?
y

Check the entry CCCCCCCCCCCC[S+]1CCCC1.[I-] : does HC20 equal or exceed 60 µM?
y

Check the entry CCCCCCCCCCCCCCCC[n+]1ccccc1.[Cl-] : does HC20 equal or exceed 60 µM?
n

Reference for the values: ChEMBL document CHEMBL4706678
